- Tested on: TTR
- MEASUREMENT_DESCRIPTION: TTR editing in primary human hepatocytes transfected with Spy Cas9 mRNA and dgRNAs (Table 9)
- Format: cell-based
- SETUP_CONDITIONS: dgRNA co-transfected with Spy Cas9 mRNA (SEQ ID NO:2)
# label = condition met if Avg % Edit < 10% else condition not met

Reference set, count: 10
>  <SEQUENCE_INPUT>
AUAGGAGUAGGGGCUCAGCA (tested as dual guide RNA, chemistry not given here) [CR003383]

>  <GROUP>
condition not met

$$$$
>  <SEQUENCE_INPUT>
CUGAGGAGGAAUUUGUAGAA (tested as dual guide RNA, chemistry not given here) [CR003364]

>  <GROUP>
condition not met

$$$$
>  <SEQUENCE_INPUT>
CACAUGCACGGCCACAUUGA (tested as dual guide RNA, chemistry not given here) [CR003350]

>  <GROUP>
condition not met

$$$$
>  <SEQUENCE_INPUT>
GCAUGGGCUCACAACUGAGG (tested as dual guide RNA, chemistry not given here) [CR003362]

>  <GROUP>
condition met

$$$$
>  <SEQUENCE_INPUT>
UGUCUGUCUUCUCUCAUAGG (tested as dual guide RNA, chemistry not given here) [CR005307]

>  <GROUP>
condition not met

$$$$
>  <SEQUENCE_INPUT>
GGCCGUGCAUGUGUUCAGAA (tested as dual guide RNA, chemistry not given here) [CR005304]

>  <GROUP>
condition not met

$$$$
>  <SEQUENCE_INPUT>
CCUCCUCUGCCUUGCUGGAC (tested as dual guide RNA, chemistry not given here) [CR003336]

>  <GROUP>
condition not met

$$$$
>  <SEQUENCE_INPUT>
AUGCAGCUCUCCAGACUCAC (tested as dual guide RNA, chemistry not given here) [CR003358]

>  <GROUP>
condition met

$$$$
>  <SEQUENCE_INPUT>
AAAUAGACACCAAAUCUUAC (tested as dual guide RNA, chemistry not given here) [CR003366]

>  <GROUP>
condition not met

$$$$
>  <SEQUENCE_INPUT>
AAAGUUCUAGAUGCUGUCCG (tested as dual guide RNA, chemistry not given here) [CR003346]

>  <GROUP>
condition not met

$$$$

Say whether its Avg % Edit is strictly beneath 10%. Entry: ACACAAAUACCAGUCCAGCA (tested as dual guide RNA, chemistry not given here) [CR003339]
condition not met

Below 10% on Avg % Edit? Entry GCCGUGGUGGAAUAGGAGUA (tested as dual guide RNA, chemistry not given here) [CR003387]
condition met

A record lists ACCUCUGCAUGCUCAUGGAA (tested as dual guide RNA, chemistry not given here) [CR003371] . Is its Avg % Edit below 10%?
condition met

These data points were gathered from patent US11795460B2.
